Where these numbers come from: patent US6620828B2

target: CDK2/Cyclin A complex (Homo sapiens); test: CDK2/Cyclin A assay; assay type: biochemical; conditions: 1.0 μM; combinatorial library compounds
Label 1 (yes) when inhibition at 1 µM is at or above 20%; otherwise label 0 (no).

Answered cases to consult:
Smiles structure | Subject of test | Assigned class
CC(C)c1ccc(Nc2nc(N)c(-c3nc(-c4ccc5c(c4)OCCO5)cs3)s2)cc1 | CDK2/Cyclin A complex (Homo sapiens) | 1 (yes)
Cc1cc(-c2csc(-c3sc(Nc4ccc(C(C)C)cc4)nc3N)n2)c(C)s1 | CDK2/Cyclin A complex (Homo sapiens) | 0 (no)
Cc1ccc(-c2csc(-c3sc(Nc4ccc(N(C)C)cc4)nc3N)n2)cc1 | CDK2/Cyclin A complex (Homo sapiens) | 0 (no)

Quick check: does `CC(C)c1ccc(Nc2nc(N)c(-c3nc(-c4cc5cc(Cl)ccc5o4)cs3)s2)cc1` have inhibition at 1 µM greater than or equal to 20%? 0 (no)

Quick check: does `CN(C)c1ccc(Nc2nc(N)c(-c3nc(-c4ccc(-c5ccc(Cl)cc5Cl)o4)cs3)s2)cc1` have inhibition at 1 µM greater than or equal to 20%? 0 (no)

Quick check: does `COc1cccc(-c2csc(-c3sc(Nc4ccc(N(C)C)cc4)nc3N)n2)c1` have inhibition at 1 µM greater than or equal to 20%? 0 (no)

Quick check: does `COc1cccc(-c2csc(-c3sc(Nc4ccc(C(C)C)cc4)nc3N)n2)c1` have inhibition at 1 µM greater than or equal to 20%? 0 (no)

Quick check: does `Cc1onc(-c2ccccc2)c1-c1csc(-c2sc(Nc3ccc(S(N)(=O)=O)cc3)nc2N)n1` have inhibition at 1 µM greater than or equal to 20%? 0 (no)

Quick check: does `CC(C)c1ccc(Nc2nc(N)c(-c3nc(-c4csc5ccccc45)cs3)s2)cc1` have inhibition at 1 µM greater than or equal to 20%? 0 (no)

---

biological target: FGF-R1 (Homo sapiens, UniProt P11362, C488A/C584S/L457V); construct: starting from the endogenous methionine residue 456 to glutamate 766; made in house; host or cells: baculovirus vector expression system; test: FGF-R spectrophotometric assay; assay type: biochemical; details: Table 3; % inh @ 1 uM; read-out: FGF-P Ki (nM) (% inh @ 1 uM)
Sequence (P11362 456-766 L457V/C488A/C584S): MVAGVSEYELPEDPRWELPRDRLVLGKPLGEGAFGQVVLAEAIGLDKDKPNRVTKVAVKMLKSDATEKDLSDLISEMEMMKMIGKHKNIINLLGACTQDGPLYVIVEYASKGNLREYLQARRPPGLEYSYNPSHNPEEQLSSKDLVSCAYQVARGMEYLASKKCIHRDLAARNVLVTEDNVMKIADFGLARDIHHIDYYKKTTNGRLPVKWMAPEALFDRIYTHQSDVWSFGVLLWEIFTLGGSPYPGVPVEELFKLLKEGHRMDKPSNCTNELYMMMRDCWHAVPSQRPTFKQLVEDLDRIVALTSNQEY
Property: inhibition at 1 µM; scope: individual molecules
Please give a number only; it is taken to be in %.

Molecule | Subject of test | inhibition at 1 µM / %
COc1cc(Nc2nc(N)c(-c3nc(-c4cc(NC(=O)c5cccc(Cl)c5)c(F)cc4F)no3)s2)cc(OC)c1OC [D(66)] | FGF-R1 (Homo sapiens, UniProt P11362, C488A/C584S/L457V) | 55

What measured inhibition at 1 µM goes with COc1cc(Nc2nc(N)c(-c3nc(-c4cc(NC(=O)c5cccc(Cl)c5)ccc4Cl)no3)s2)cc(OC)c1OC [D(64)] ? 84

---

Target: FL-CHK1 (Homo sapiens, UniProt O14757)
Construct: C-terminally His-tagged full-length human CHK1 (FL-CHK1); 6xHis (C); made in house; host or cells: baculovirus/insect cells
Sequence (O14757 1-476): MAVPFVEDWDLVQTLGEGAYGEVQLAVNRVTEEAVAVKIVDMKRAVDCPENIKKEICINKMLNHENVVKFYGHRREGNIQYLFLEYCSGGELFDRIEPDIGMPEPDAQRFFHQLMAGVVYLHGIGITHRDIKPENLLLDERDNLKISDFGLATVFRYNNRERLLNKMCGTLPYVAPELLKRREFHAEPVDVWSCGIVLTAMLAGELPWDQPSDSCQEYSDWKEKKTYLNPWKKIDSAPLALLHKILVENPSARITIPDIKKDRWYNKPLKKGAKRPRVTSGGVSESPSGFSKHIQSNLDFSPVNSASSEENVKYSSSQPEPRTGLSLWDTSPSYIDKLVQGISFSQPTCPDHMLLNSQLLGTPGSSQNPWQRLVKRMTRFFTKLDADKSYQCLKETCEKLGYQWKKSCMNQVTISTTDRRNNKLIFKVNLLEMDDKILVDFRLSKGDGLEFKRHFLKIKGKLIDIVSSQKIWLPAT
Experiment: CHK1 assay
Type: biochemical
Settings: 20 μM; combinatorial library compounds
Measured metric: inhibition at 20 µM (%)
Please give a number only; it is taken to be in %.

Molecule | Subject of test | Experimental result
Cc1ccc(-c2csc(-c3sc(Nc4ccc(C(C)C)cc4)nc3N)n2)c(C)c1 | FL-CHK1 (Homo sapiens, UniProt O14757) | -2.5

What measured inhibition at 20 µM goes with Nc1nc(Nc2ccc(S(N)(=O)=O)cc2)sc1-c1nc(C2C=C([N+](=O)[O-])C=CC2)cs1 (stereo not drawn) ? 10.8

What measured inhibition at 20 µM goes with Cc1ccc(-c2csc(-c3sc(Nc4ccc(S(N)(=O)=O)cc4)nc3N)n2)cc1 [drawing 395] ? -2.1

What measured inhibition at 20 µM goes with `CN(C)c1ccc(Nc2nc(N)c(-c3nc(-c4ccc[nH]4)cs3)s2)cc1` ? 32.5

What measured inhibition at 20 µM goes with `CC(C)c1ccc(Nc2nc(N)c(-c3nc(-c4cccc([N+](=O)[O-])c4)cs3)s2)cc1` ? 7.2

What measured inhibition at 20 µM goes with `CN(C)c1ccc(Nc2nc(N)c(-c3nc(-c4csc5ccccc45)cs3)s2)cc1` ? 12.6

What measured inhibition at 20 µM goes with `CN(C)c1ccc(Nc2nc(N)c(-c3nc(-c4ccc5c(c4)C(C)(C)CCC5(C)C)cs3)s2)cc1` ? 32.9

What measured inhibition at 20 µM goes with `COc1ccccc1-c1csc(-c2sc(Nc3ccc(C(C)C)cc3)nc2N)n1` ? 15.6

What measured inhibition at 20 µM goes with `COc1cc(OC)c(-c2csc(-c3sc(Nc4ccc(N(C)C)cc4)nc3N)n2)c(O)c1Cl` ? 41.1
